Source: ChEMBL document CHEMBL5576121

Target: 5-hydroxytryptamine receptor 7 (Homo sapiens, UniProt P34969)
Sequence (P34969 whole entry): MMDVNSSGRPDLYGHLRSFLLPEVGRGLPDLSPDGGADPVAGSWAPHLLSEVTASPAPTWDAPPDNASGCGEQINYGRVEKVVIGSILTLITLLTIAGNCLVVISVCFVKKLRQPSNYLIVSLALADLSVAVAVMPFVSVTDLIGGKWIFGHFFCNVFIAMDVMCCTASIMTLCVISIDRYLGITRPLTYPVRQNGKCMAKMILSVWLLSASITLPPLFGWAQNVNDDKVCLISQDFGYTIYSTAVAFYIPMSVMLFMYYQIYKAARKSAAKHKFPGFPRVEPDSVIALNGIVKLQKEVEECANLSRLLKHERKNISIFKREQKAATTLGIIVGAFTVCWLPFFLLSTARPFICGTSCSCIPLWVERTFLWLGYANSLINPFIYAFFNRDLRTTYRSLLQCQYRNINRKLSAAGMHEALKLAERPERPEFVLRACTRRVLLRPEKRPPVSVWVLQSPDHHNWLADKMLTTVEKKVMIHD
parameter: Ki (nM)
Respond with the bare value in nM.

// known answers, use as guide
CC(=O)c1ccc(OCC(O)CN2CCN(c3ccc(Cl)cc3)CC2)cc1 (stereo not given) = 7130
OC(COc1ccc2c(c1)CCC2)CN1CCN(c2ccccc2)CC1 (stereo not given) = 587
COc1ccc(OC)c(COCC(O)CN2CCN(c3cccc(Cl)c3)CC2)c1 (stereo not given) = 65
CC(=O)c1ccc(OCC(O)CN2CCN(c3ccccc3Cl)CC2)cc1 (stereo not given) = 4670

Find the measured Ki: item OC(COc1ccc2c(c1)CCC2)CN1CCN(c2ccc(Cl)cc2)CC1 (stereo not given) , target or system 5-hydroxytryptamine receptor 7 (Homo sapiens, UniProt P34969).
1520
